The entries below come with measured pKd values attached.
- Study target: T1, human PCSK9 (PCSK9 antigen, SEQ ID NO. 53) (human, UniProt A8T644 31-152; Q8NBP7 153-692, Biotin-labelled on amines in the MSD-SET and sorting experiments; positions not given.)
- T1 construct: Biotin-labelled in MSD-SET; also called PCSK9-WT; PCSK9 protein
- Assay overview: MSD-SET, Fab with biotin-PCSK9 in solution, IgG on plate, pH 7.4
Keep in mind that pKd stands for -log10 of concentration in molar terms.

Study these solved cases before continuing.
input: Identify the reported pKd for the following entry. ADI-10087 Fab (Fab, V domains shown) VH: QLQLQESGPGLVKPSETLSLTCTVSGGSISSASYYWSWIRQPPGKGLEWIGSINYRGSTYYNPSLKSRVTISVDTSKNQFSLKLSSVTAADTAVYYCARENSGVVPAAGPNWFGPWGQGTLVTVSS VL: EIVLTQSPATLSLSPGERATLSCRASQSVSSYLAWYQQKPGQAPRLLIYDASNRATGIPARFSGSGSGTDFTLTISSLEPEDFAVYYCQQRRNWFTFGGGTKVEIKR
output: 11.30

input: Determine its reported pKd: ADI-09111 Fab (Fab, V domains shown) VH: QLQLQESGPGLVKPSETLSLTCTVSGGSISSSSYYWGWIRQPPGKGLEWIGSIYYSGSTYYNPSLKSRVTISVDTSKNQFSLKLSSVTAADTAVYYCARENSGVVPAAGPNWFDPWGQGTLVTVSS VL: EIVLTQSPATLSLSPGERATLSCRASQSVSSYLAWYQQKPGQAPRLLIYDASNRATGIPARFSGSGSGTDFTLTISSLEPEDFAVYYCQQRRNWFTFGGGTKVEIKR
output: 9.15

Moving on to another binder below.
input: Could you please provide reported pKd for ADI-10086 Fab (Fab, V domains shown) VH: QLQLQESGPGLVKPSETLSLTCTVSGGSIRSSAYYWGWIRQPPGKGLEWIGSINYRGSTYYNPSLKSRVTISVDTSKNQFSLKLSSVTAADTAVYYCARENSGVVPAAGPNWFGPWGQGTLVTVSS VL: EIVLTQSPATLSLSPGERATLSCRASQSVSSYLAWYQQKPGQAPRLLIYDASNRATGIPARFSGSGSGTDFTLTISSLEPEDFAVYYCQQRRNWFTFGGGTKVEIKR ? Thanks!
output: 11.07

Reference source: patent US20200087416A1
